- Test system: SN12C renal
- EXPERIMENT: NCI-60 one-dose screen, 48 h (100 = growth as untreated, 0 = no growth, -100 = all killed)
- SETUP CONDITIONS: 10 µM unless noted
This is part of a sample that, as a whole, favours compounds with a hit. Of some 83,000 tested, about 20% had one in any assay.
ASSAY METRIC: growth (%)
Dear colleague, please return just the value in %, with no unit written.

COMPOUND: CCc1cc2c(cc1Cl)nc1c(=O)[nH]c(=O)nc-1n2CCOCC(C)(C)C
MEASURED ON: SN12C renal
MEASUREMENT: 79.8

[Q] Which growth is listed for COC(=O)CNC(=O)c1cccc(-c2cc(=O)c3c(OC)c(OC)c(OC)cc3o2)c1 ?
[A] 104

[Q] Which growth is listed for O=S(=O)(NCCCNc1nccc(-c2[nH]c(-c3ccccc3)nc2-c2ccc(F)c(O)c2)n1)c1cccc(F)c1 ?
[A] 99.1

[Q] Which growth is listed for COc1cc2cc(Oc3ccc(NC(=O)c4cc(C(F)(F)F)cc(C(F)(F)F)c4)cc3)c(C)nc2cc1OCCN1CCOCC1 ?
[A] 83

[Q] Which growth is listed for CC[C@]12C=CCN3CC[C@@]4(c5ccc(OC)cc5N(C)[C@H]4[C@@](O)(C(=O)OC)[C@@H]1OC(=O)CCN1CCc4ccccc4C1)[C@@H]32 ?
[A] 99.4

[Q] Which growth is listed for CCOC(=O)Nc1ccc2c(ccn2C(=O)c2cccc(F)c2)c1 ?
[A] 48.7

[Q] Which growth is listed for CC(C)C(/C=C/c1[nH]ncc1-c1cc(Cl)ccc1O)N1CCOCC1 (configuration not stated) ?
[A] 97.7

* * *

Recorded growth values for a group of compounds are listed next.
- Tested on: OVCAR-8 ovarian
- EXPERIMENT: NCI-60 one-dose screen, 48 h (100 = growth as untreated, 0 = no growth, -100 = all killed)
- SETUP CONDITIONS: 10 µM unless noted
This is part of a sample that, as a whole, favours compounds with a hit. Of some 83,000 tested, about 20% had one in any assay. Activity calls are given as the source filed them. The calls were made as follows: active = growth percent below 10; inactive = the rest.

RECORD SMILES: O=C(/C=C/c1ccccc1)c1cccc(O)c1
MEASUREMENT: 92.3% (inactive)
//
RECORD SMILES: CCCCCC[n+]1ccc(SCC(=O)n2ccc3ccccc32)c2ccccc21
MEASUREMENT: 92.1% (inactive)

Consider the record given below.
[Q] // fetch OVCAR-8 ovarian growth for COC(=O)[C@@H](Cc1c[nH]c2ccccc12)NC(=O)CCCCOc1cc(O)c2c(=O)cc(-c3ccccc3)oc2c1
[A] 87.5% (inactive)

* * *

- Test system: TK-10 renal
- EXPERIMENT: NCI-60 one-dose screen, 48 h (100 = growth as untreated, 0 = no growth, -100 = all killed)
- SETUP CONDITIONS: 10 µM unless noted
About 83,000 compounds went through this panel and 20% of them were active in at least one assay; those are over-represented in the sample as a whole.
ASSAY METRIC: growth (%)
Dear colleague, please return just the value in %, with no unit written.

RECORD SMILES: CCOC(=O)c1cccc(NC2=C(Cl)C(=O)c3nc(C)ccc3C2=O)c1
growth, %: 119
--
RECORD SMILES: Cc1ccc2c(n1)C(=O)C(Cl)=C(Nc1ccc(C(C)C)cc1)C2=O
growth, %: 145
--
RECORD SMILES: Cc1ccc(N2CCN(C3=C(Cl)C(=O)c4ncccc4C3=O)CC2)cc1
growth, %: 133

[Q] Which growth is listed for O=C1Nc2ccc(F)cc2/C1=C\C(=O)c1ccc(NS(=O)(=O)c2ccccc2)cc1 ?
[A] 130

[Q] Which growth is listed for CC(=O)/C(N=Nc1ccc2oc(=O)ccc2c1)=C(\C)O ?
[A] 23.8

[Q] Which growth is listed for O=[N+]([O-])c1ccc(NC(=S)NNC(=S)Nc2ccc(F)cc2)cc1 ?
[A] 103

* * *

- System: OVCAR-3 ovarian
- EXPERIMENT: NCI-60 one-dose screen, 48 h (100 = growth as untreated, 0 = no growth, -100 = all killed)
- SETUP CONDITIONS: 10 µM unless noted
About 83,000 compounds went through this panel and 20% of them were active in at least one assay; those are over-represented in the sample as a whole.
Recorded growth values for a group of molecules are listed next.
Dear colleague, please return just the value in %, with no unit written.

The cases that follow already have their growth on record.
MOLECULE: CC(C)=CCC[C@](C)(O)[C@H]1CC[C@]2(C)[C@@H]1CC[C@@H]1[C@@]3(C)CC[C@H](N)C(C)(C)[C@@H]3CC[C@]12C
growth, %: 107
//
MOLECULE: O=C(/C=C/Nc1ccc(S(=O)(=O)Nc2ncccn2)cc1)c1ccc(N=Cc2c(O)[nH]c3ccccc23)cc1
growth, %: 137

[Q] Which growth is listed for COc1ccc(C2c3[nH]c4ccc(Cl)cc4c3CCN2c2oc(CO)nc2C#N)cc1 (centres undefined) ?
[A] 46.7

[Q] Which growth is listed for CC1=C(C)C(=O)C(Nc2ccc(C)cc2)=C(Br)C1=O ?
[A] 105

[Q] Which growth is listed for O=S(=O)(NCCCNc1nccc(-c2[nH]c(-c3ccccc3)nc2-c2ccc(F)c(O)c2)n1)c1cccc2ccccc12 ?
[A] 88.4

[Q] Which growth is listed for NC(=O)c1c(NC(=O)c2ccc(C(F)(F)F)cc2)sc2c1CCC(=O)C2 ?
[A] -17.2

[Q] Which growth is listed for O=C(Nc1cccc(Cl)c1)Nc1nc2cc([N+](=O)[O-])ccc2o1 ?
[A] -0.896

[Q] Which growth is listed for Cc1cc(C)cc(NC2=C(Cl)C(=O)c3nc(C)ccc3C2=O)c1 ?
[A] -0.41

[Q] Which growth is listed for C#CCOc1cccc(-c2nc(N)nc(Nc3ccccc3SSc3ccccc3Nc3nc(N)nc(-c4cccc(OCC#C)c4)n3)n2)c1 ?
[A] 79.7

[Q] Which growth is listed for N#Cc1c(-c2cccs2)cc(-c2cnccn2)nc1SCC(=O)N/N=C/c1ccc(Cl)cc1 ?
[A] 117

[Q] Which growth is listed for CC1=C(C)C(=O)C(Nc2cccc(C)c2)=C(Br)C1=O ?
[A] 110

[Q] Which growth is listed for CC(C)NC(=O)c1cc(-c2ccc(NC(=O)Nc3ccc(F)cc3)cc2)nc2cccnc12 ?
[A] 115

[Q] Which growth is listed for CCOC(=O)c1cnc2c(-c3ccc(Cl)c(Cl)c3)cnn2c1 ?
[A] 70.8

[Q] Which growth is listed for C[C@@H]1OCC2(CCN(c3cnc(C(=O)Nc4cc(F)cc5cccnc45)cn3)CC2)[C@@H]1N ?
[A] 18.7

[Q] Which growth is listed for O=C(CSc1cc[n+](CCCCO)c2ccccc12)n1ccc2ccccc21 ?
[A] 104

[Q] Which growth is listed for Oc1[nH]c2ccc(Cl)cc2c1N=Nc1nc(N=Nc2c(O)[nH]c3ccc(Cl)cc23)nc(N2CCCCC2)n1 ?
[A] 76.9

* * *

- System: SK-OV-3 ovarian
- EXPERIMENT: NCI-60 one-dose screen, 48 h
- SETUP CONDITIONS: 10 µM unless noted
The panel holds about 83,000 compounds, 20% with a hit somewhere; the sample as a whole holds those more often. Calls of active or inactive are those of the source. Rule for the calls: active = growth percent below 10; inactive = the rest.
Please state which outcome applies, choosing from active, inactive

Use these answered entries as a reference point.
COMPOUND: O=C(N/N=C\c1ccc([N+](=O)[O-])cc1)c1ccc2nc(-c3ccc(Br)cc3)[nH]c2c1
ASSIGNED CLASS: inactive
//
COMPOUND: C/C(CC1(O)C(=O)Nc2ccccc21)=N\O (centres undefined)
ASSIGNED CLASS: inactive
//
COMPOUND: CC1=C(C)C(=O)C(Nc2cccc(C(=O)OC(C)(C)C)c2)=CC1=O
ASSIGNED CLASS: inactive
//
COMPOUND: C=C(C=O)[C@@H]1CC[C@]2(C(=O)O)CC[C@]3(C)C(CC[C@@H]4[C@@](C)(CCC#N)[C@H](C(=C)C=O)CC[C@]43C)[C@@H]12 (some centres undefined)
ASSIGNED CLASS: inactive
//
COMPOUND: Cc1ccc(/C=N/Nc2nc(Nc3ccccc3)nc(Nc3ccc(S(N)(=O)=O)cc3)n2)cc1
ASSIGNED CLASS: inactive

[Q] Look up the recorded call for COc1ccc(/C=N/NC(=O)c2c(N)nn(C)c2Nc2ccccc2)cc1 in this test.
[A] inactive

[Q] Look up the recorded call for Cc1[nH]c(C(=O)Nc2ccc(C(N)=O)cc2N2CCOC(C)C2)c(Cl)c1Cl (centres undefined) in this test.
[A] inactive

[Q] Look up the recorded call for CC(=O)Nc1cc(N2CCOCC2)c2nc(NC(=O)c3[nH]c(C)c(Cl)c3Cl)sc2c1 in this test.
[A] inactive

[Q] Look up the recorded call for NC(=O)n1c(=O)n(-c2cccc(C(F)(F)F)c2)c(=O)c2cc(-c3ccc(F)cc3F)ccc21 in this test.
[A] active

[Q] Look up the recorded call for CC(=O)N1N=C(c2cc3ccccc3oc2=O)CC1c1cn(-c2ccccc2)nc1-c1ccc(C)cc1 (centres undefined) in this test.
[A] inactive

[Q] Look up the recorded call for CCCC/C(=C\c1ccc(O)c(O)c1)C(=O)NC(Cc1ccccc1)C(=O)C(=O)NCCc1ccc(OC)cc1 (centres undefined) in this test.
[A] inactive

[Q] Look up the recorded call for CN1CCN(c2ccc(Nc3nc(NCCCNS(=O)(=O)c4cccc5ccccc45)c4sccc4n3)cc2)CC1 in this test.
[A] active

[Q] Look up the recorded call for NS(=O)(=O)c1cccc(Nc2nc(SCC(=O)c3ccc(Cl)cc3)nc3c2CCC3)c1 in this test.
[A] inactive

[Q] Look up the recorded call for C#Cc1nc(/C=C/CCCCCCC(=O)NO)cs1 in this test.
[A] inactive

[Q] Look up the recorded call for Clc1ccc2c(N/N=C/c3c[nH]c4ccccc34)ccnc2c1 in this test.
[A] active

[Q] Look up the recorded call for CCCCCC[n+]1ccc(SCC(=O)n2ccc3ccccc32)c2ccccc21 in this test.
[A] inactive

[Q] Look up the recorded call for Oc1[nH]c2ccc(Cl)cc2c1N=Nc1nc(N=Nc2c(O)[nH]c3ccc(Cl)cc23)nc(N2CCOCC2)n1 in this test.
[A] inactive

[Q] Look up the recorded call for C=C(C)[C@@H]1CC[C@]2(C(=O)N3CCN(C)CC3)CC[C@]3(C)[C@H](CC[C@@H]4[C@@]5(C)CC[C@H](OP(=O)(OCC)OCC)C(C)(C)[C@@H]5CC[C@]43C)[C@@H]12 in this test.
[A] inactive

[Q] Look up the recorded call for C#CCn1cc(/C=N/Nc2nc(-c3ccc(Br)cc3)cs2)c2ccccc21 in this test.
[A] inactive
